Tested on: Fibrinogen (Alexa647-labelled)
Assay: fibrinogen binders on compound microarrays, profiling panel, artefact control for SMM control-protein annotation, biochemical, small-molecule microarray, 635/667 nm fluorescence (AID 1131);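 note: z-score merges 667 nm fluorescence with per-spot signal-to-noise over triplicate slides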
Measurement conditions: fibrinogen-A647 binding fluorescence, higher = more signal
Measured property: composite z-score

| Molecule | Measured property | Recorded measurement |
| --- | --- | --- |
| CCC=CCCC(OC(=O)c1ccc(Br)cc1)C1=CCCCC1=O (configuration not stated) | composite z-score | -0.997 |
| CCN1C(=O)[C@H]2[C@H]3[C@H](O)[C@H](O)CC(=O)[C@H]3CC[C@H]2C1=O | composite z-score | 0.861 |
| CC(C)CON=C1C[C@@H](O)[C@@H](O)[C@@H]2[C@@H]3C(=O)N(C[C@@H]4CCCO4)C(=O)[C@@H]3CC[C@@H]12 | composite z-score | 0.222 |
| CC(=O)OC[C@H]1O[C@H](CCON=C2[C@H]3CCn4c(=O)n(-c5ccccc5)c(=O)n4[C@H]3[C@H](O)[C@@H]3O[C@H]23)C=C[C@@H]1OC(C)=O | composite z-score | 0.366 |
| CC(C)=CCCC(C)=CCON=C1C[C@@H](O)[C@@H](O)[C@@H]2[C@@H]3C(=O)N(c4cccc(Oc5ccccc5)c4)C(=O)[C@@H]3CC[C@@H]12 | composite z-score | 0.589 |
| O=C1[C@H]2[C@H]3[C@H](O)[C@H](O)CC(=NOCc4ccccc4)[C@H]3CC[C@H]2C(=O)N1Cc1ccc2c(c1)OCO2 | composite z-score | 0.632 |
| CC(=O)OC[C@H]1O[C@@H](ON=C(C)CCN2CCCc3nc(C)c(C)cc32)[C@H](OC(C)=O)[C@@H](OC(C)=O)[C@@H]1OC(C)=O | composite z-score | 0.602 |
